- study.system: T1, Porcine Citrate synthase (porcine, UniProt P00889 28-464)
- T1 construct: also called CS
- T1 sequence (looked up): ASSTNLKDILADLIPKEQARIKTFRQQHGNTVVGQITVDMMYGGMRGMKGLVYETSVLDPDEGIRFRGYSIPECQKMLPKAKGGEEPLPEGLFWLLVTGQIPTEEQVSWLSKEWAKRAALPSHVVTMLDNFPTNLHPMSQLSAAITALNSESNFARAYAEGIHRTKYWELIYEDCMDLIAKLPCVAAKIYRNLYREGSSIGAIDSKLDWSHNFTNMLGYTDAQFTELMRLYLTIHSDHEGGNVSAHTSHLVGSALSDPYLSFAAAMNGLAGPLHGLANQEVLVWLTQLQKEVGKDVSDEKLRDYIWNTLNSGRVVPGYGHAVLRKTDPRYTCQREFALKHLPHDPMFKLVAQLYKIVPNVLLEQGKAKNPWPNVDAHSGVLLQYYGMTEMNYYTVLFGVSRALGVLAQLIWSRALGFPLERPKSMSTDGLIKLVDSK
- test.protocol: protein pin array ELISA, A450; listed as peak peptide with unheated and pre-heated target
No end group written: not given here.
observed.property: binding result

Worked cases, answers included:
In [3]: df
Out[3]:
                                     binder  reported_measurement
0  WIRRPFFP (pin-immobilised 8-mer of human αB crystallin; also called peptide 5)                 binds
1  FISREFHR (pin-immobilised 8-mer of human αB crystallin; also called peptide 57)                 binds
2  SLSPFYLR (pin-immobilised 8-mer of human αB crystallin; also called peptide 22)                 binds
3  FYLRPPSF (pin-immobilised 8-mer of human αB crystallin; also called peptide 24)                 binds
4  FPFHSPSR (pin-immobilised 8-mer of human αB crystallin; also called peptide 8)                 binds
5  LTITSSLS (also: covalently bound to polyethylene pin, pin-immobilised 8-mer of human αB crystallin; also called β8)                 binds
6  FSVNLDVK (also: covalently bound to polyethylene pin, pin-immobilised 8-mer of human αB crystallin; also called β3)                 binds
7  LTVNGPRK (pin-immobilised 8-mer of human αB crystallin; also called peptide 72)                 binds

## Task Given the binder LRAPSWFD (pin-immobilised 8-mer of human αB crystallin; also called peptide 28) , write its reported binding result.
## Result binds

## Task Provide only the value of recorded binding result for RTIPITRE (pin-immobilised 8-mer of human αB crystallin; also called peptide 79)
## Result binds
